Tested on: 201T
Assay: relative viability (nuclei count vs DMSO), 5 days (fraction); higher = more cells survive
Conditions: first compound 0.02 µM
Experimental Readout: relative viability
// no unit, no text: just the number

Reported relative viability of CC(=O)O[C@@]12CO[C@@H]1C[C@H](O)[C@@]1(C)C(=O)[C@H](O)C3=C(C)[C@@H](OC(=O)[C@H](O)[C@@H](NC(=O)OC(C)(C)C)c4ccccc4)C[C@@](O)([C@@H](OC(=O)c4ccccc4)[C@H]21)C3(C)C [Docetaxel] + Nc1ncn([C@H]2C[C@H](O)[C@@H](CO)O2)c(=O)n1 [Decitabine] (partner 2 µM) : 0.331
